# credit: patent US11642348B2

system: WSU-DLCL2 cells; experiment: Cell proliferation analysis (WSU-DLCL2, Cell Titer Glo); assay type: cell-based; details: Homo sapiens, WSUDLCL2, Table 3B, 6 days, read-out: WSU proliferation IC50
pIC50: −log10 of the molar value.
Mark criterion not met for pIC50 values under 6, and criterion met for everything at or above.

- CCN(c1cc(-c2ccc(COC)nc2)cc(C(=O)NCc2c(C(C)C)cc(C)[nH]c2=O)c1C)C1CCOCC1 [Compound 129]: criterion met
- CCN(c1cc(-c2ccc(CN3CC(O)C3)c(F)c2)cc(C(=O)NCc2c(C)cc(C)[nH]c2=O)c1C)C1CCOCC1 [Compound 154]: criterion met
- CCN(c1cc(-c2ccc(N3CC(O)C3)nc2)cc(C(=O)NCc2c(C)cc(C)[nH]c2=O)c1C)[C@H]1CC[C@H](N(C)C)CC1 [Compound 144]: criterion not met

API: the following record is the query input.
(Q) Confirm if pIC50 reported for the compound CCN(c1cc(C#CCN2C[C@@H](C)N[C@@H](C)C2)cc(C(=O)NCc2c(C(C)C)cc(C)[nH]c2=O)c1C)C1CCOCC1 [Compound 101] is 6 or above.
(A) criterion met

* * *

test system: WSU-DLCL2 cells; experiment: Cell proliferation analysis (WSU-DLCL2, Cell Titer Glo); type: cell-based; conditions: Homo sapiens, WSUDLCL2, Table 3B, 6 days, read-out: WSU proliferation IC50
PROPERTY MEASURED: pIC50
Lab note — pIC50 values are minus log10 of concentrations in M.

Worked cases, answers included:
* CCN(c1cc(-c2ccc(CN3CCC[C@H](O)C3)nc2)cc(C(=O)NCc2c(C)cc(C)[nH]c2=O)c1C)[C@H]1CC[C@H](N(C)C)CC1 [Compound 147] | 6.94
* CCN(c1cc(-c2ccc(CN3CCCN(C)CC3)nc2)cc(C(=O)NCc2c(C)cc(C)[nH]c2=O)c1C)[C@H]1CC[C@H](N(C)C)CC1 [Compound 146] | 6.66
* CCN(c1cc(C#CCN2CCOCC2)cc(C(=O)NCc2c(C)cc(C)[nH]c2=O)c1C)C1CCC(N(C)C)CC1 (stereo not shown) [Compound 111] | 6.70

(Q) Return pIC50 (reported value) for this compound: CCN(c1cc(-c2ccc(OC3CCN(C)CC3)nc2)cc(C(=O)NCc2c(C)cc(C)[nH]c2=O)c1C)C1CCOCC1 [Compound 133]
(A) 6.30

(Q) Return pIC50 (reported value) for this compound: CCN(c1cc(-c2ccc(OC)nc2)cc(C(=O)NCc2c(C)cc(C)[nH]c2=O)c1C)C1C[C@@H](C)N[C@H](C)C1 (stereo partly shown) [Compound 120]
(A) 5.86

* * *

target: wild-type EZH2 (PRC2 complex) (Homo sapiens (Human)); test: PRC2 enzyme assay on peptide substrates (wild-type EZH2)
Sequence (Q15910 other isoform, or with tags, fused parts or gaps): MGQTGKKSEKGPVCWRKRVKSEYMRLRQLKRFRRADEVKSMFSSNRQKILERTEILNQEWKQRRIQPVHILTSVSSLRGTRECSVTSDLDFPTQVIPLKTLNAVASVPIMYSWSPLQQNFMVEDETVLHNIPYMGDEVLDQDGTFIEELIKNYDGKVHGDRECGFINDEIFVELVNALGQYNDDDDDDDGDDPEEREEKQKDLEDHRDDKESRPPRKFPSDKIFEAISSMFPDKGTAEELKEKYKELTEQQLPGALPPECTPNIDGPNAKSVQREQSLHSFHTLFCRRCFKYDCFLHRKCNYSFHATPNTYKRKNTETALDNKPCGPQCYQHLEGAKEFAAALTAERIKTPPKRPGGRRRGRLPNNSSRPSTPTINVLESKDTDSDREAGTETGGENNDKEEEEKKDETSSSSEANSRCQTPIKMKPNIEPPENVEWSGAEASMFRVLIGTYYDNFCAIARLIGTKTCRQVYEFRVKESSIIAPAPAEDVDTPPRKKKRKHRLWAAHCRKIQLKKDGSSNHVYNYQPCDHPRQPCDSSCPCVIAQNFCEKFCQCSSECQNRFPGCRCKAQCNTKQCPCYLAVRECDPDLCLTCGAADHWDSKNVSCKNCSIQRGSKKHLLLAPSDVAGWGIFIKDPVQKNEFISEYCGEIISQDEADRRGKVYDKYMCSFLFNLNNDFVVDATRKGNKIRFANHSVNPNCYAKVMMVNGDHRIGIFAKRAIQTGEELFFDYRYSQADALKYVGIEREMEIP
Sequence (O75530 whole entry partner): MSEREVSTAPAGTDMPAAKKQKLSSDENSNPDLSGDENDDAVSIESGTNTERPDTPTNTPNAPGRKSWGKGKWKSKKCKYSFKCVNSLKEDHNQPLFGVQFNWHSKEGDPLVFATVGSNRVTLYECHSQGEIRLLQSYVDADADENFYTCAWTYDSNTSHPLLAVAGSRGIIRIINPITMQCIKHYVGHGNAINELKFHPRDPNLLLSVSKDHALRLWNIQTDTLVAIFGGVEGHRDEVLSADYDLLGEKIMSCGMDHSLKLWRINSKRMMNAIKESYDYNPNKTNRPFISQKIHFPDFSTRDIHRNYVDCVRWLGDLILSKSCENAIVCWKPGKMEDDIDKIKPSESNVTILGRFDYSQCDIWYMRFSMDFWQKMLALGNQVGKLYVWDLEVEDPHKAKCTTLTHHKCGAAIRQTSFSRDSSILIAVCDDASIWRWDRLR
Sequence (Q15022 whole entry partner): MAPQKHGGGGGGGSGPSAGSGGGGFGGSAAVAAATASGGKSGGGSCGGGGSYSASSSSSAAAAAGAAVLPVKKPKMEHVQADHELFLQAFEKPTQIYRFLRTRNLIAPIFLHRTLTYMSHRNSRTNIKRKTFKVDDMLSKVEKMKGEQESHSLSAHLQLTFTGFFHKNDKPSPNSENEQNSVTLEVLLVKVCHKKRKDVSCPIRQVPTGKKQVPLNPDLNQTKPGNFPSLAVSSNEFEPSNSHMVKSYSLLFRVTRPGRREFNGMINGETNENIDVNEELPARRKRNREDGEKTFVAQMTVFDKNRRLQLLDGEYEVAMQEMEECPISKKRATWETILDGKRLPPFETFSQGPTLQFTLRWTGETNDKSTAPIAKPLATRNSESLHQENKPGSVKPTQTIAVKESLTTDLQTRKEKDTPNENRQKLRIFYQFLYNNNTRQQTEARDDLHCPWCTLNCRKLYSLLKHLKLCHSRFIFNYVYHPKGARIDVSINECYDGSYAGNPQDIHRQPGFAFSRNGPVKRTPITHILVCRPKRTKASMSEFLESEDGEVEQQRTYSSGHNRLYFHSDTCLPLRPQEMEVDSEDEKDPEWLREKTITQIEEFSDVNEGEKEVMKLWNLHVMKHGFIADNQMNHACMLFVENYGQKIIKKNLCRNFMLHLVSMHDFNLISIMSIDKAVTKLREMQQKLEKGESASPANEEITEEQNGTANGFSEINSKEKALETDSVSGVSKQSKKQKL
Sequence (Q09028 whole entry partner): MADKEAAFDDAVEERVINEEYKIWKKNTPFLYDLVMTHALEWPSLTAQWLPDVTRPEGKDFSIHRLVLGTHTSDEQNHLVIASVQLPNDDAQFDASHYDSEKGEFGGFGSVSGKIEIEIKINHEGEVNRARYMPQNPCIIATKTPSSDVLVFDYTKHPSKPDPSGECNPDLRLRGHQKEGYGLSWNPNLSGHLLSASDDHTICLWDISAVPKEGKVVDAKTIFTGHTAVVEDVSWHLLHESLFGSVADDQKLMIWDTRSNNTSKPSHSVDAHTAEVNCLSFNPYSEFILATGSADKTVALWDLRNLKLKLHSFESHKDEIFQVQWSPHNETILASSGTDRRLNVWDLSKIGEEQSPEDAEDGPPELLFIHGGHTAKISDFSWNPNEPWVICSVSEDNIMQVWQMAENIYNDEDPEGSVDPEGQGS
pIC50 for assorted molecules
Lab note — pIC50 values are minus log10 of concentrations in M.

* CCN(c1cc(C#CC2CCN(C3CN(C)C3)CC2)cc(C(=O)NCc2c(C)cc(C)[nH]c2=O)c1C)C1CCOCC1 | 7.92
* CCN(c1cc(-c2cnc(C)cn2)cc(C(=O)NCc2c(C)cc(C)[nH]c2=O)c1C)[C@H]1CC[C@H](N(C)CCOC)CC1 | 8.07

// moving on: another record for pIC50
(Q) Return pIC50 (reported value) for this molecule: "CCN(c1cccc(C(=O)NCc2c(C)cc(C)[nH]c2=O)c1C)[C@H]1CC[C@H](N(C)CCOC)CC1"
(A) 8.13
